Test system: Pseudomonas aeruginosa
Experiment: Antimicrobial activity against Pseudomonas aeruginosa PAO1 by micro broth dilution or agar based method
Assay type: functional
ATTRIBUTE MEASURED: MIC
Answer format reminder: number followed by unit.

In the examples that follow, each entry is paired with its recorded MIC.
# SMILES NOTATION, MIC
data = [
    ("N[C@@H]1C(=O)NC[C@H]1Oc1ccc2ncc(F)c(CCC34CCC(NCc5ccc6c(n5)NC(=O)CO6)(CC3)CO4)c2n1", "16 µg/mL"),
    ("CCOC(=O)C(F)(F)CCOc1ccc2ncc(F)c(CCC34CCC(NCc5ccc6c(n5)NC(=O)CO6)(CC3)CO4)c2n1", "64 µg/mL"),
    ("N[C@H]1CO[C@@H]1COc1ccc2ncc(F)c(CCC34CCC(NCc5ccc6c(n5)NC(=O)CO6)(CC3)CO4)c2n1", "16 µg/mL"),
]

Would you kindly look at the next entry?
Lab request: please report MIC under test system Pseudomonas aeruginosa for N#CC1(COc2ccc3ncc(F)c(CCC45CCC(NCc6ccc7c(n6)NC(=O)CO7)(CC4)CO5)c3n2)CC1 16 µg/mL
